tested on: Polycyclic aromatic hydrocarbon binding protein; details: Mus musculus;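 further: competitive displacement of radiolabeled [3H]benzo[a]pyrene from its binding site on the protein taken from mouse liver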
Description: Competition for [3H]benzo[a]pyrene-binding site of polycyclic aromatic hydrocarbon binding protein (PBP) from mouse liver
testReadout: Delta Gm

{"compound": "Cc1ccc2cc3c(ccc4ccccc43)c3c2c1CC3", "resultNumber": 17.4}
{"compound": "O[C@H]1c2cccc3ccc4c5ccccc5cc(c4c23)[C@@H]1O", "resultNumber": 17.4}
{"compound": "c1ccc2c(c1)cc1ccc3cccc4ccc2c1c34", "resultNumber": 19}
{"compound": "O[C@H]1C=Cc2c(cc3ccc4cccc5ccc2c3c45)[C@@H]1O", "resultNumber": 18.4}
{"compound": "c1ccc2c(c1)-c1cccc3cccc-2c13", "resultNumber": 17.8}
{"compound": "c1ccc2cc3c4ccccc4c4ccccc4c3cc2c1", "resultNumber": 18.6}
{"compound": "O[C@@H]1C=Cc2cc3ccc4cccc5ccc(c2[C@H]1O)c3c45", "resultNumber": 18.9}
{"compound": "c1cc2ccc3cccc4ccc(c1)c2c34", "resultNumber": 16.3}
{"compound": "O[C@H]1C=C2c3ccccc3-c3cccc(c32)[C@@H]1O", "resultNumber": 17.7}
{"compound": "Nc1cccc2cc3ccccc3cc12", "resultNumber": 15.2}
{"compound": "Oc1ccc2cc3ccc4cccc5ccc(c2c1)c3c45", "resultNumber": 18.3}
{"compound": "C1=Cc2cc3cccc4ccc5ccc1c2c5c43", "resultNumber": 15.8}
{"compound": "c1ccc2c(c1)ccc1c3ccccc3ccc21", "resultNumber": 17.9}
{"compound": "Nc1cc2ccccc2c2ccccc12", "resultNumber": 15.2}
{"compound": "Nc1cccc2ccccc12", "resultNumber": 14.4}
{"compound": "Nc1ccc2c(c1)Cc1ccccc1-2", "resultNumber": 11.9}

meta.source: ChEMBL document CHEMBL1125172
